# ASSAY_OVERVIEW: Cytotoxicity against Drosophila S2 assessed as reduction in cell proliferation by WST8 assay
# EXPERIMENTAL_CONTEXT: Drosophila S2 cells
Could you please mark Met for values of CC50 below 90 µM and Not met for values at or above it?

stdin: Regarding `CCCCCC(=O)c1c(O)c(Cl)c(OC)c(Cl)c1O` , kindly confirm whether its CC50 is beneath 90 µM.
stdout: Met

stdin: I wonder whether `CCCCCC(=O)c1c(O)c(Cl)c(C)c(Cl)c1O` has CC50 below 90 µM. Can you tell?
stdout: Met

stdin: Determine whether this compound shows CC50 lower than 90 µM (ties excluded): `CCCCCCCCC(=O)c1c(O)c(Cl)c(O)c(Cl)c1O`
stdout: Met

stdin: Answer whether the compound `CCCCCCC(=O)c1c(OC)c(Cl)c(OC)c(Cl)c1OC` has CC50 strictly less than 90 µM
stdout: Not met

stdin: Take the compound `CCCCCC(=O)c1c(OC)c(Cl)c(OC)c(Cl)c1OC` and say whether its CC50 is less than 90 µM.
stdout: Not met

stdin: Lab note: confirm whether the reported CC50 for this compound is below 90 µM, equality not counting. compound: `CCCC(=O)c1c(OC)c(Cl)c(OC)c(Cl)c1OC`
stdout: Not met

stdin: Given the entry `CCCCCC(=O)c1c(O)cc(OC)c(Cl)c1O` , would its reported CC50 be below 90 µM?
stdout: Met

stdin: Identify whether the compound `CCCCCCCC(=O)c1c(OC)c(Cl)c(OC)c(Cl)c1OC` records CC50 below 90 µM.
stdout: Met

stdin: Problem: For the compound `CCCCCC(=O)c1c(O)c(Br)c(OC)c(Br)c1O` , is CC50 under 90 µM?
stdout: Met

stdin: In the record for `CCCCCCc1c(O)c(Cl)c(OC)c(Cl)c1O` , is CC50 less than 90 µM?
stdout: Not met

stdin: For `CCCCC(=O)c1c(OC)c(Cl)c(OC)c(Cl)c1OC` , is the recorded CC50 below the cut-off of 90 µM?
stdout: Not met

stdin: Strictly below 90 µM in CC50? `CCCCCC(=O)c1c(O)c(Cl)c(O)c(Cl)c1O`
stdout: Not met

stdin: Is CC50 strictly under 90 µM for the entry `CCCC(=O)c1c(O)c(Cl)c(O)c(Cl)c1O` ?
stdout: Not met
